Tested on: full length human vWF (SEQ ID NO 7)
Test: dot blot KD determination and extent of binding, full length human vWF;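 also: dot blot binding of aptamers to full length human vWF across a protein titration, incubated 30 minutes at room temperature in 1x DPBS with BSA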
Conditions: Phase 1 modification; extent of aptamer binding at 100 nM full length human vWF
Oligonucleotides are written 5' to 3', each unit as a sugar letter and its base; * is a phosphorothioate linkage, no mark a phosphodiester; rarer units and linkages stand in square brackets, end groups in braces. Plain capitals give the bases only. [invdT] = inverted (3'-3') thymidine; d = 2'-deoxy (DNA); m = 2'-O-methyl
Quick reference for % binding @ 100 nM vWF among some substances

substance	system name	measure unit	% binding @ 100 nM vWF
ARC1230: ARC1172 with one residue replaced by 2'-O methyl residue (dGdGdCdGdTdGdCdAdGdTdGdCdCdTdTdCdGdGdCdCdGdTdGdCdGdGdTdGdCdCdTdCdCdGdTdCmAdCdGdCdC[invdT]; aptamer)	full length human vWF (SEQ ID NO 7)	%	46
ARC1240: ARC1172 with composite 2'-O methyl replacements in the stem regions (dGdGdCdGdTdGdCdAdGdTmGmCmCdTdTdCmGmGmCdCdGdTdGdCdGdGdTdGdCdCdTdCdCdGdTdCdAdCdGdCdC[invdT]; aptamer)	full length human vWF (SEQ ID NO 7)	%	40
